molecular target: thrombin (UniProt P00734;P00734 P00734:328-363,P00734:364-622); assay: fluorescence beacon titration, TE buffer (20 mM Tris-HCl, 1 mM EDTA, pH 7.5), 24 C; estimated
observable: Kd (nM)
Write it as a number; the unit nM goes unstated.

Query string: Value lookup for Kd; key = CCAACGGTTGGTGTGGTTGG (ssDNA) [G15D5dMB]
Result string: 3
